study_system: UniProtKB Q99705
Sequence (Q99705 whole entry): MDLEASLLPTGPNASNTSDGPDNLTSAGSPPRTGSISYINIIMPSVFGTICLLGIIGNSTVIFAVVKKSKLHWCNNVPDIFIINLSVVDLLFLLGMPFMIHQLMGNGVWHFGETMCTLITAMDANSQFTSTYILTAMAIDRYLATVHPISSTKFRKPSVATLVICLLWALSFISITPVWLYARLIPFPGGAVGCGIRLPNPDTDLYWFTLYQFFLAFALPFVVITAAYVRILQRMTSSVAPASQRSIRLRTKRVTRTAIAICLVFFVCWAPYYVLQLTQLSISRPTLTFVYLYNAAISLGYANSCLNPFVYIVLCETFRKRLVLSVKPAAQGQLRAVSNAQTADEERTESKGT
Residues, ends and D or L forms follow the SMILES beside them.
experimental_endpoint: pIC50
Hey, just a heads up that pIC50 is the negative log base 10 of the concentration in molar.

Example results:
# compound, pIC50
data = [
    ("CSCC[C@@H]1NC(=O)[C@@H](NC(=O)[C@H](CCCNC(=N)N)NC(C)=O)CSSC[C@@H](C(N)=O)NC(=O)[C@@H]2CCCN2C(=O)[C@H](CCCNC(=N)N)NC(=O)[C@H](Cc2ccc(O)cc2)NC(=O)[C@H](C(C)C)NC(=O)[C@H](CCCNC(=N)N)NC(=O)[C@H](CC(N)=O)NC(=O)[C@H](CC(C)C)NC1=O [SEQ. ID. NO. 25] (HELM PEPTIDE1{[ac].R.C.M.L.N.R.V.Y.R.P.C.[am]}$PEPTIDE1,PEPTIDE1,3:R3-12:R3$$$V2.0)", 9.55),
    ("CSCC[C@@H]1NC(=O)[C@@H](NC(=O)[C@@H](CCCCN)NC(C)=O)CSSC[C@@H](C(N)=O)NC(=O)[C@@H]2CCCN2C(=O)[C@H](CCCNC(=N)N)NC(=O)[C@H](Cc2ccc(O)cc2)NC(=O)[C@H](C(C)C)NC(=O)[C@H](CCCNC(=N)N)NC(=O)CNC(=O)[C@H](CC(C)C)NC1=O", 9.52),
    ("CSCC[C@@H]1NC(=O)[C@@H](NC(=O)[C@H](N)CCCNC(=N)N)CSSC[C@@H](C(N)=O)NC(=O)[C@@H]2CCCN2C(=O)[C@H](CCCNC(=N)N)NC(=O)[C@H](Cc2ccc(O)cc2)NC(=O)[C@H](C(C)C)NC(=O)[C@H](CCCNC(=N)N)NC(=O)CNC(=O)[C@H](CC(C)C)NC1=O", 7.46),
    ("CCCC[C@@H]1NC(=O)[C@@H](NC(=O)[C@@H](CCCNC(=N)N)NC(C)=O)CSSC[C@@H](C(N)=O)NC(=O)[C@@H]2CCCN2C(=O)[C@H](CCCNC(=N)N)NC(=O)[C@H](Cc2ccc(O)cc2)NC(=O)[C@H](C(C)C)NC(=O)[C@H](CCCNC(=N)N)NC(=O)[C@H](CC(N)=O)NC(=O)[C@H](CC(C)C)NC1=O [SEQ. ID. NO. 31] (HELM PEPTIDE1{[ac].[dR].C.[Nle].L.N.R.V.Y.R.P.C.[am]}$PEPTIDE1,PEPTIDE1,3:R3-12:R3$$$V2.0)", 9.55),
]

// returns pIC50 for CSCC[C@@H]1NC(=O)[C@@H](NC(=O)[C@H](CCCNC(=N)N)NC(C)=O)CSSC[C@@H](C(N)=O)NC(=O)[C@@H]2CCCN2C(=O)[C@H](CCCNC(=N)N)NC(=O)[C@H](Cc2ccc(O)cc2)NC(=O)[C@H](C(C)C)NC(=O)[C@H](CCCNC(=N)N)NC(=O)[C@H](Cc2ccccc2)NC(=O)[C@H](CC(C)C)NC1=O [SEQ. ID. NO. 20] (HELM PEPTIDE1{[ac].R.C.M.L.F.R.V.Y.R.P.C.[am]}$PEPTIDE1,PEPTIDE1,3:R3-12:R3$$$V2.0) with UniProtKB Q99705; value = 10.00
